B1: ADAMTSL2 (parent)
chain: KKPPEESTCFERPCFKWYTSPWSE

Variants of: B1
TEST METHOD NOTES: protein stability index of a GFP-peptide fusion (GPS, HEK-293T) (PSI 1-6); higher = more stable;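 note: lentivirally expressed fusions sorted by FACS into six bins by GFP to DsRed ratio, PSI derived from sequencing read proportions per bin multiplied by bin number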
TEST PARAMETERS: c terminus: a fixed tail appended
ENDPOINT: protein stability index
Please reply with the value in numeric form only.

Request: Any idea what its protein stability index is? The variant is C9I
Response: 2.25

Request: Can you handle T19P next?
Response: 2.86

Request: Can you handle Y18P next?
Response: 3.02

Request: Can you handle F15G next?
Response: 2.25

Request: Can you handle T19N next?
Response: 3.43

Request: Can you handle E11Q next?
Response: 2.27

Request: Can you handle W17L next?
Response: 2.37

Request: Can you handle P3T next?
Response: 2.21

Request: Can you handle Y18K next?
Response: 3.04

Request: Can you handle K16P next?
Response: 2.13

Request: Can you handle Y18M next?
Response: 2.38

Request: Can you handle P4W next?
Response: 1.75

Request: Can you handle Y18N next?
Response: 2.81

Request: Can you handle S20V next?
Response: 1.93

Request: Can you handle E11P next?
Response: 2.46

Request: Can you handle P4L next?
Response: 2.04

Request: Can you handle P13H next?
Response: 2.21

Request: Can you handle Y18F next?
Response: 1.86

Request: Can you handle P3D next?
Response: 2.77

Request: Can you handle S23N next?
Response: 2.5

Request: Can you handle W22H next?
Response: 3.6

Request: Can you handle S7R next?
Response: 2.19
